# System: A549
# Experiment Notes: Cytotoxicity against human A549 cells assessed as induction of cell death incubated for 2 days by MTT assay
# Format: functional, cell-based
# Condition Info: A549, 48 h
pIC50: −log10 of the molar value.
Could you please report measured pIC50 for the items listed next?

| Given Smiles | pIC50 |
| --- | --- |
| C[C@H]1O[C@@H](O[C@H]2CC[C@@]3(C)[C@@H](CC[C@]4(C)[C@@H]3C=CC3=C5CC(C)(C)CC[C@]5(CO)[C@@H](O)C[C@]34C)[C@]2(C)CO)[C@H](O)[C@@H](O)[C@H]1O | < 4.30 |

Now for another entry.
Check the records and state pIC50 for `C[C@H]1O[C@@H](O[C@H]2CC[C@@]3(C)[C@@H](CC[C@]4(C)[C@@H]3C=CC3=C5CC(C)(C)CC[C@]5(CO)C(=O)C[C@]34C)[C@]2(C)CO)[C@H](O)[C@@H](O[C@@H]2O[C@H](CO)[C@@H](O)[C@H](O)[C@H]2O)[C@H]1O`
< 4.30

###

# Test system: MCF7
# Experiment Notes: Cytotoxicity against human MCF7 cells assessed as induction of cell death incubated for 2 days by MTT assay
# Type: functional, cell-based
# Condition Info: MCF7, 48 h
Readout: IC50 (µM)
One number for each entry, in µM.

| Given Smiles | Quantitative Readout |
| --- | --- |
| C[C@H]1O[C@@H](O[C@H]2CC[C@@]3(C)[C@@H](CC[C@]4(C)[C@@H]3C=C[C@]35OC[C@@]6(CCC(C)(C)C[C@H]63)[C@@H](O)C[C@]54C)[C@]2(C)CO)[C@H](O)[C@@H](O[C@@H]2O[C@H](CO)[C@@H](O)[C@H](O)[C@H]2O)[C@H]1O | 19 |

We now examine a further molecule.
Note down IC50 recorded for `C[C@H]1O[C@@H](O[C@H]2CC[C@@]3(C)[C@@H](CC[C@]4(C)[C@@H]3C=CC3=C5CC(C)(C)CC[C@]5(CO)[C@@H](O)C[C@]34C)[C@]2(C)CO)[C@H](O)[C@@H](O)[C@H]1O`
42.1

###

# Tested on: MCF7
# Experiment Notes: Cytotoxicity against human MCF7 cells assessed as induction of cell death incubated for 2 days by MTT assay
# Assay type: functional, cell-based
# Condition Info: MCF7, 48 h
Exercise: state measured pIC50 for each of the compounds provided.
Answers are plain numbers, as −log10 of the molar value.

| Given Smiles | pIC50 |
| --- | --- |
| C[C@H]1O[C@@H](O[C@H]2CC[C@@]3(C)[C@@H](CC[C@]4(C)[C@@H]3C=C[C@]35OC[C@@]6(CCC(C)(C)C[C@H]63)[C@@H](O)C[C@]54C)[C@]2(C)CO)[C@H](O)[C@@H](O)[C@H]1O | 4.36 |
| C[C@H]1O[C@@H](O[C@H]2CC[C@@]3(C)[C@@H](CC[C@]4(C)[C@@H]3C=CC3=C5CC(C)(C)CC[C@]5(CO)[C@H](O)C[C@]34C)[C@]2(C)CO)[C@H](O)[C@@H](O)[C@H]1O | 4.53 |
| CC(=O)O[C@@H]1[C@@H](O)[C@H](O[C@H]2[C@@H](O)[C@@H](C)O[C@@H](O[C@H]3CC[C@@]4(C)[C@@H](CC[C@]5(C)[C@@H]4C=C[C@]46OC[C@@]7(CCC(C)(C)C[C@H]74)[C@@H](O)C[C@]65C)[C@]3(C)CO)[C@@H]2O)O[C@H](CO)[C@H]1O | 4.65 |
| C[C@H]1O[C@@H](O[C@H]2CC[C@@]3(C)[C@@H](CC[C@]4(C)[C@@H]3C=C[C@]35OC[C@@]6(CCC(C)(C)C[C@H]63)[C@H](O)C[C@]54C)[C@]2(C)CO)[C@H](O)[C@@H](O)[C@H]1O | 4.31 |
| C[C@H]1O[C@@H](O[C@H]2CC[C@@]3(C)[C@@H](CC[C@]4(C)[C@@H]3C=C[C@]35OC[C@@]6(CCC(C)(C)C[C@H]63)[C@H](O)C[C@]54C)[C@]2(C)CO)[C@H](O)[C@@H](O[C@@H]2O[C@H](CO)[C@@H](O)[C@H](O)[C@H]2O)[C@H]1O | 5.11 |

Provide each entry's pIC50 from the list below.
1. CC(=O)OC[C@H]1O[C@@H](O[C@H]2[C@@H](O)[C@@H](C)O[C@@H](O[C@H]3CC[C@@]4(C)[C@@H](CC[C@]5(C)[C@@H]4C=C[C@]46OC[C@@]7(CCC(C)(C)C[C@H]74)[C@@H](O)C[C@]65C)[C@]3(C)CO)[C@@H]2O)[C@H](O)[C@@H](O)[C@@H]1O
2. C[C@H]1O[C@@H](O[C@H]2CC[C@@]3(C)[C@@H](CC[C@]4(C)[C@@H]3C=C[C@]35OC[C@@]6(CCC(C)(C)C[C@H]63)C(=O)C[C@]54C)[C@]2(C)CO)[C@H](O)[C@@H](O[C@@H]2O[C@H](CO)[C@@H](O)[C@H](O)[C@H]2O)[C@H]1O

1: 4.44; 2: 4.62

Data provenance: ChEMBL document CHEMBL3612048
